- assayed_system: T1, human neuropeptide Y2 receptor (human, UniProt P49146 1-381)
- T1 sequence (looked up): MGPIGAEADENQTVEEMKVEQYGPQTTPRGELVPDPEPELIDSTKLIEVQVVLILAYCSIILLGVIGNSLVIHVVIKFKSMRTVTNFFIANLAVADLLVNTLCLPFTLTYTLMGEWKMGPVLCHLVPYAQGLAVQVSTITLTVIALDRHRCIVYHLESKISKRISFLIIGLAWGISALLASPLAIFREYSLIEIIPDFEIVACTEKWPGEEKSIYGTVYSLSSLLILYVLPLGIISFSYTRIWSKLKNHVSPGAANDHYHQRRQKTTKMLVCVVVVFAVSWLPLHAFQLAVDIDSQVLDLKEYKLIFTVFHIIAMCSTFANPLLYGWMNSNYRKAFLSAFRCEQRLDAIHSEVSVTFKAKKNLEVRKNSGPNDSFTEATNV
- protocol_summary: cell-based or functional assay
Measured EC50, CreLuc reporter, 0.5% hP values are reported for all entries that follow.
Kindly format the answer as number then unit.

Example entries and their recorded answers appear below.
>  <binder>
YXEGTFTSDYSIXLEKQAQXAFVRQLINKXTRQRY (Aib at 2, 13, 20, 30; Lys29 epsilon-amino acylated with C18DA-gGlu-gGlu-gGlu-gGlu-gGlu; C-terminal amide) [Compound 50]

>  <value>
335 nM

$$$$
>  <binder>
YXEGTFTSDYSIXLEKEAQXAFVRHLINKXTRQRY (Aib at 2, 13, 20, 30; Lys29 epsilon-amino acylated with C20DA-gGlu-gGlu-gGlu-gGlu-gGlu-gGlu-eLys; C-terminal amide) [Compound 28]

>  <value>
24 nM

$$$$

// moving on: another record for EC50, CreLuc reporter, 0.5% hP
## Input What value of EC50, CreLuc reporter, 0.5% hP has been recorded for this entry: YXEGTFTSDYSIXLEQQAQXAFVRHLINKXTRQRY (Aib at 2, 13, 20, 30; Lys29 epsilon-amino acylated with C18DA-gGlu-gGlu-gGlu-gGlu-gGlu; C-terminal amide) [Compound 42]
## Output 81.4 nM

The origin of these recorded values is patent US20250382344A1.
